# target-or-test-system: SALL4 ZFC4 R900W (HT-SELEX) (Mus musculus, UniProt Q8BX22 870-940, R900W)
# Sequence: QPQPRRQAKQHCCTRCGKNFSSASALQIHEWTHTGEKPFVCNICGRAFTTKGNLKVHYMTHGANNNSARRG
# method-description: HT-SELEX; high values mean tight binding
# setup-conditions: protein: recombinant; vector His6-GST; dsDNA, one strand shown
Collected log10(binding signal) values appear next to each entry.
A value of 2 here means binding signal of 100 in fold-change vs cycle 0, since values are log10.

# count of solved cases: 6
{"macromolecule-sequence": "CAGGCC", "readout-name": "log10(binding signal)", "quantitative-result": -0.80}
{"macromolecule-sequence": "CTTGTA", "readout-name": "log10(binding signal)", "quantitative-result": 0.16}
{"macromolecule-sequence": "CATGCG", "readout-name": "log10(binding signal)", "quantitative-result": -0.53}
{"macromolecule-sequence": "AGAATC", "readout-name": "log10(binding signal)", "quantitative-result": 0.17}
{"macromolecule-sequence": "AGTCCG", "readout-name": "log10(binding signal)", "quantitative-result": -0.39}
{"macromolecule-sequence": "CCCGCG", "readout-name": "log10(binding signal)", "quantitative-result": -1.27}

Prompt line: Entry under review: `TGGTAA` . Reported log10(binding signal)?
Response line: 0.17

Prompt line: Entry under review: `GGGATA` . Reported log10(binding signal)?
Response line: -0.01

Prompt line: Entry under review: `ACTCGG` . Reported log10(binding signal)?
Response line: -0.33
